- System: ADP induced platelet aggregation
- TEST DETAILS: In vitro anti-platelet aggregation, ADP induced (turbidimetry, PRP)
- Type: cell-based, rabbits
- CONDITION: Oryctolagus cuniculus, Platelet, read-out: IC50 ADP (10 μM), rabbit PRP, inducer ADP 10 μM, 37° C.
REPORTED ENDPOINT: pIC50
Answers are plain numbers, as −log10 of the molar value.

>>> value_observed("CCCC[C@H](OC(C)=O)c1ccccc1C(=O)O [(S)-APB, (S)-2-(1-acetoxy-n-pentyl)benzoic acid]")
3.10
>>> value_observed("CCCCC(OC(C)=O)c1ccccc1C(=O)O (racemic) [I5]")
2.94
>>> value_observed("N=C(N)NCCC[C@H](N)C(=O)O [L-arginine]")
2.23
>>> value_observed("CCCC[C@@H](OC(C)=O)c1ccccc1C(=O)O [(R)-APB, (R)-2-(1-acetoxy-n-pentyl)benzoic acid]")
3.12

Fill in pIC50 for each of the 3 molecules listed.
1. CCCCC(OC(=O)CC)c1ccccc1C(=O)O (racemic) [I2]
2. CCCCC(OC(=O)CCC)c1ccccc1C(=O)O (racemic) [I3]
3. CC(=O)Oc1ccccc1C(=O)O [Aspirin]

**Result**
1. 3.19
2. 2.90
3. 3.11
